Test system: murine P388 cell line
Experiment Description: Cell-based cytotoxicity (XTT proliferation inhibition) against murine P388 cell line
Setup Conditions: Mus musculus, P388 cells, 72 h incubation, absorbance at 450 nm, read-out: IC50 (drug concentration required to inhibit cell proliferation to 50% of untreated control cells)
Answer each item with its documented IC50.
Value expressed in nM; do not type the unit.

Would you mind telling me what IC50 value was observed for CCOC1(C)CC(O)C(O)C(n2c3ccc(F)cc3c3c4c(c5c6cc(F)ccc6[nH]c5c32)C(=O)NC4=O)O1 (centres unmarked) ?
55

Look up IC50: CO[C@@]1(C)C[C@H](O)[C@@H](O)[C@H](n2c3cc(F)c(F)cc3c3c4c(c5c6cc(F)c(F)cc6[nH]c5c32)C(=O)NC4=O)O1
50

// returns reported IC50 for input CO[C@@]1(C)C[C@H](O)[C@@H](O)[C@H](n2c3ccc(F)cc3c3c4c(c5c6cc(F)ccc6[nH]c5c32)C(=O)NC4=O)O1
7

# input compound: COC1(C)CC(O)C(O)C(n2c3cc(F)c(F)cc3c3c4c(c5c6cc(F)c(F)cc6sc5c32)C(=O)NC4=O)O1 (centres unmarked) ; wanted: its IC50
69

Request the reported IC50 associated with O=C1NC(=O)c2c1c1c3cc(F)c(F)cc3[nH]c1c1c2c2cc(F)c(F)cc2n1[C@@H]1OC(CO)(CO)C[C@H](O)[C@H]1O
35

Recorded IC50 of CO[C@@]1(CO)C[C@H](O)[C@@H](O)[C@H](n2c3cc(F)c(F)cc3c3c4c(c5c6cc(F)c(F)cc6[nH]c5c32)C(=O)NC4=O)O1 , please.
35

Fill blank: measured IC50 of the compound CO[C@]1(CO)O[C@@H](n2c3cc(F)c(F)cc3c3c4c(c5c6cc(F)c(F)cc6[nH]c5c32)C(=O)NC4=O)[C@H](O)[C@@H](O)[C@@H]1O is ____.
250

Item under review: CC(C)OC1(C)CC(O)C(O)C(n2c3ccc(F)cc3c3c4c(c5c6cc(F)ccc6[nH]c5c32)C(=O)NC4=O)O1 (centres unmarked) . Reported IC50?
200

Cited source for all entries: patent US6653290B2
